System: DU-145 prostate
test method notes: NCI tumour cell line growth inhibition, 48 h
Items are presented alongside their recorded TGI.

Look up TGI for this molecule: COc1ccc(N[C@H]([C@@H](c2ccccc2)S(=O)c2ccc(C)cc2)C(F)(F)F)cc1 (stereo partly specified)
> 100 µM

Look up TGI for this molecule: CN(C)c1ccc(C2SCC(=O)N2c2nc3cc4sc(N5C(=O)CSC5c5ccc(N(C)C)cc5)nc4cc3s2)cc1 (stereo unspecified)
> 87.2 µM

Look up TGI for this molecule: CCCCCNC(=O)c1cc2cc(CCl)ccc2oc1=O
5.95 µM

Look up TGI for this molecule: O=C1Nc2ccccc2/C1=C/C(=O)c1ccc(N2CCCC2)cc1
> 100 µM

Look up TGI for this molecule: c1ccc2nc3c(cc2c1)Sc1cc2ccccc2[n+]2c1N3CC2
> 100 µM

Look up TGI for this molecule: OCCCc1n(Cc2ccc3ccccc3c2)c2ccccc2[n+]1Cc1ccc2ccccc2c1
14.2 µM
